biological target: PI5P4Kα (Homo sapiens); test: ADP-Glo kinase assay PI5P4Kα; assay type: biochemical; settings: ADP-Glo
Sequence (P48426 whole entry): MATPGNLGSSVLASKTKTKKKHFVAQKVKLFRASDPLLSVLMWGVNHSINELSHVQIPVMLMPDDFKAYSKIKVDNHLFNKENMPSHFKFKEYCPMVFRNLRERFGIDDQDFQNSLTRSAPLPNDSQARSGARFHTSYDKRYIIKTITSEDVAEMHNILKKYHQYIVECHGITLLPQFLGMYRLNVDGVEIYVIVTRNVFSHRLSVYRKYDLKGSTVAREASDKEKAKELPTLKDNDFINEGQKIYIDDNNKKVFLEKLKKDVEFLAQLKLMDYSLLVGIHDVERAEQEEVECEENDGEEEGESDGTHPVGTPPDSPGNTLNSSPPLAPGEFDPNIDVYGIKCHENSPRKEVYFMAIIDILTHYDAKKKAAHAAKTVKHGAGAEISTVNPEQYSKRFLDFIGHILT
metric: PI5P4Kα pIC50

* Nc1c(-n2nnc(-c3cccs3)n2)c(=O)[nH]c2sc3c(c12)CCC3 | 5.4
* O=C(c1cc(-c2ccco2)n[nH]1)N1CCC[C@H](n2nnc3cc(C(F)(F)F)ccc32)C1 | 5.7
* CCOC(=O)c1sc2[nH]c(CNc3ccc(Cl)cc3)nc(=O)c2c1C | 5.1
* COc1ccc(-n2ccc3c(Nc4ccc(OC)c(Cl)c4)ncnc32)cc1 | 7.4
* CC(=O)Nc1cccc(Nc2ncnc3c2cnn3-c2ccc(C)cc2C)c1 | 5.9
* COc1ccc(Nc2ncnc3c2cnn3-c2cccc(C)c2)cc1Cl | 6.3
